Molecular target: 5-hydroxytryptamine receptor 2B (Homo sapiens, UniProt P41595)
Sequence (P41595 whole entry): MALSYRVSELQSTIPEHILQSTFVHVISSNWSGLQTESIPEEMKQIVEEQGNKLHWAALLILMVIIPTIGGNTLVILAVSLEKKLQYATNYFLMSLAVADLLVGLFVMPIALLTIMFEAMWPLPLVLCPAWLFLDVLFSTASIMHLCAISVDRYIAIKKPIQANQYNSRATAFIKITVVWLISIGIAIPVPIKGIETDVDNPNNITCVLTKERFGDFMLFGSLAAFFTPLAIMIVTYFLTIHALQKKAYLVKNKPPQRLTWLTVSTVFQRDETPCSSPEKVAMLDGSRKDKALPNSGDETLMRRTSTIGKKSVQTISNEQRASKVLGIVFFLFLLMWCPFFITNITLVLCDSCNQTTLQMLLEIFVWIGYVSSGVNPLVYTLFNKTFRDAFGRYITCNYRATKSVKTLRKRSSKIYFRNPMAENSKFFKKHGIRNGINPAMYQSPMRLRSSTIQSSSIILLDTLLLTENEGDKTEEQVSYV
Assay: Efficacy against human recombinant 5HT2B receptor induced intracellular calcium mobilization in CHO cells by FLIPR
RECORDED ENDPOINT: pEC50
Scale for pEC50: -log10 of concentration given in mol/L; no unit attached.

Query block: So what's the measured pEC50 for this one? C[C@@H]1CNC[C@H]2Cc3ccc(COCC4CC4)nc3N21
Result block: 7.64

###

RECORDED ENDPOINT: Ki

Query block: Given the entry C[C@@H]1CNC[C@H]2Cc3ccc(COCC4CC4)nc3N21 , what Ki was observed with 5-hydroxytryptamine receptor 1B (Homo sapiens, UniProt P28222)?
Result block: > 720 nM

###

Target: Sodium-dependent noradrenaline transporter (Homo sapiens, UniProt P23975)
Sequence (P23975 whole entry): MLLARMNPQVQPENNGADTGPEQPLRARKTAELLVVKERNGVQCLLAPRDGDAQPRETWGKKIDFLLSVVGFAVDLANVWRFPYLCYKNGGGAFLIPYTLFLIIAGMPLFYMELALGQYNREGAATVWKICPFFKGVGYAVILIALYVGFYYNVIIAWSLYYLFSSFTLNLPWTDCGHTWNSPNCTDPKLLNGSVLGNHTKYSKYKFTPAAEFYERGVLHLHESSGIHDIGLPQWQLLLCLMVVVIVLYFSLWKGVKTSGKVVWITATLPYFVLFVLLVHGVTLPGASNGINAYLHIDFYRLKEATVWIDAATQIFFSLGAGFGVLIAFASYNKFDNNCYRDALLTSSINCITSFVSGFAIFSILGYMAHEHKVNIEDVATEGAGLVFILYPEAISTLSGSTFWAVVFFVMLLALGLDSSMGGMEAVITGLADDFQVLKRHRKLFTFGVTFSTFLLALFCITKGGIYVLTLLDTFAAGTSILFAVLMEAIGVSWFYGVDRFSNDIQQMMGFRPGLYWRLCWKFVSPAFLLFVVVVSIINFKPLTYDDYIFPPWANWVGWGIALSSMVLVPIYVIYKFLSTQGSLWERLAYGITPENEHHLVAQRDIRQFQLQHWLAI
RECORDED ENDPOINT: Ki

Query block: Ki lookup needed for C[C@@H]1CNC[C@H]2Cc3ccc(COCC4CC4)nc3N21 , thanks.
Result block: > 1 µM

###

Target: Beta-1 adrenergic receptor (Homo sapiens)
Sequence (P08588 whole entry): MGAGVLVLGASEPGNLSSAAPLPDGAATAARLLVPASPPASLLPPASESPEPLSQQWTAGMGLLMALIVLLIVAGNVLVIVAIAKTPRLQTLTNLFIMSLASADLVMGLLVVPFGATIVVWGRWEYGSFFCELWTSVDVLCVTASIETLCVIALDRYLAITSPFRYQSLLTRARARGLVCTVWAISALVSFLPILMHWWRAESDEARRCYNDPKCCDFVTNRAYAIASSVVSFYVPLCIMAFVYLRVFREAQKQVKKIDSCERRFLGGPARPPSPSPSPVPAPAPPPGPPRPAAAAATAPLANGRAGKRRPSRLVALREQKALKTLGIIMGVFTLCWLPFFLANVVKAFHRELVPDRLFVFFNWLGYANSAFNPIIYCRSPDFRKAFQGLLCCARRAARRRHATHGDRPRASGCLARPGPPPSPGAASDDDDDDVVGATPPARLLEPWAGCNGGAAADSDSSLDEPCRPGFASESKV
RECORDED ENDPOINT: Ki

Query block: Query (compound): C[C@@H]1CNC[C@H]2Cc3ccc(COCC4CC4)nc3N21 ; field requested: Ki
Result block: > 1 µM

###

Target: 5-hydroxytryptamine receptor 2C (Homo sapiens, UniProt P28335)
Sequence (P28335 whole entry): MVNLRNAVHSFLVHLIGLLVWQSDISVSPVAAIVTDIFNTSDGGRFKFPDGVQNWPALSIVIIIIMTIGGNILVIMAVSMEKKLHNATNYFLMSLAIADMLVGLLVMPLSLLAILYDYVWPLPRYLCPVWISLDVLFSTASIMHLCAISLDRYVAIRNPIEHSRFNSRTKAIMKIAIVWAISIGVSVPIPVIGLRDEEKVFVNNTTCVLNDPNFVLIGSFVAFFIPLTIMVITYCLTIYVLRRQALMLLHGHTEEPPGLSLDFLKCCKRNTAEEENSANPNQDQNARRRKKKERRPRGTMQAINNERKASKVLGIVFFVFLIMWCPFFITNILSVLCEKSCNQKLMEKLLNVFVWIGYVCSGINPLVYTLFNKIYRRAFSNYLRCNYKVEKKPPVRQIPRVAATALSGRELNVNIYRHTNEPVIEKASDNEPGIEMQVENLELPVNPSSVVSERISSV
Assay: Displacement of [3H]5HT from human recombinant 5HT2C receptor expressed in CHO cells
Assay type: cell-based
Kindly state pKi for each of the entries shown.
pKi (log units): -log10 of the concentration in mol/L.

Query block: For the compound C[C@@H]1CNC[C@H]2Cc3ccc(COCC4CC4)nc3N21 , what pKi is on record?
Result block: 8.44

Query block: Consider the compound shown here: C[C@@H]1CNC[C@H]2Cc3ccc(CO)nc3N21 What is its recorded pKi?
Result block: 7.27

Query block: # input compound: COc1ccc2c(n1)N1[C@@H](CNC[C@H]1C)C2 ; wanted: its pKi
Result block: 6.98

Query block: Entry under review: C[C@@H]1CNC[C@H]2Cc3ccc(C(F)(F)F)nc3N21 . Reported pKi?
Result block: 7.85

Query block: I have this compound here, C[C@@H]1CNC[C@H]2Cc3ccc(Cl)nc3N21 , and I need its recorded pKi.
Result block: 8.80

Query block: What does the record list as pKi for CCO[C@H](C)c1ccc2c(n1)N1[C@@H](CNC[C@H]1C)C2 ?
Result block: 7.03

Query block: What does the data say about its pKi? Entry: C[C@@H]1CNC[C@H]2Cc3ccc(C#N)nc3N21
Result block: 7.22

Query block: Record request: pKi value, item C[C@H](O)c1ccc2c(n1)N1[C@@H](CNC[C@H]1C)C2
Result block: 7.41

Query block: I have this compound here, C[C@@H]1CNC[C@H]2Cc3ccc(Br)nc3N21 , and I need its recorded pKi.
Result block: 9.10

Query block: Would you kindly share the measured pKi for COCc1ccc2c(n1)N1[C@@H](CNC[C@H]1C)C2 ?
Result block: 7.80

Query block: What does the data say about its pKi? Entry: Cc1ccc2c(n1)N1[C@@H](CNC[C@H]1C)C2
Result block: 8.57

Query block: Look up pKi for this compound: Clc1ccc2c(n1)N1CCNCC1C2 (stereo not given)
Result block: 6.88

Query block: Which measured pKi value corresponds to C[C@@H]1CNC[C@@H]2Cc3ccc(Br)nc3N21 ?
Result block: 7.68

Query block: Fill in the blank: the reported pKi of C[C@@H]1CNC[C@@H]2Cc3ccc(Cl)nc3N21 is ____.
Result block: 7.28

Query block: What value of pKi has been recorded for this entry: CCO[C@@H](C)c1ccc2c(n1)N1[C@@H](CNC[C@H]1C)C2
Result block: 8.64
